Origin of values: BindingDB's records for doi:10.1073/pnas.0509591102

- measurement_target: Neuronal acetylcholine receptor subunit alpha-3 (Homo sapiens, UniProt P32297)
- Sequence (P32297 whole entry): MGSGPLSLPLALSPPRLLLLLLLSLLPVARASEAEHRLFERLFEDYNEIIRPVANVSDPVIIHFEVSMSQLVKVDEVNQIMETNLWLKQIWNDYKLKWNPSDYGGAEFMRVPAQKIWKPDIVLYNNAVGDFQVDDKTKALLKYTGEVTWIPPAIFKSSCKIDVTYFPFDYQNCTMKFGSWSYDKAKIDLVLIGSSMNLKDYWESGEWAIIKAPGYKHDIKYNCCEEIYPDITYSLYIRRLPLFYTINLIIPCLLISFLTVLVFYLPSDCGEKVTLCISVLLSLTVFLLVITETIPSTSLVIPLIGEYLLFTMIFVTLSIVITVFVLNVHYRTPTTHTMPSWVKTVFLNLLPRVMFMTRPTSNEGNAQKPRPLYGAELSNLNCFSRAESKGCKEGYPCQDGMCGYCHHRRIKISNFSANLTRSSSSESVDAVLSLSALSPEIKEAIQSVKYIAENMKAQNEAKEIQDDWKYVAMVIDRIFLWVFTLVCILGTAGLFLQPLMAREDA
measured_endpoint: Ki

// returns reported Ki for input NC(=O)c1cccc(-c2cccc(OC(=O)NC3CCCCC3)c2)c1 [URB 597]
> 10 µM

* * *

- measurement_target: 5-hydroxytryptamine receptor 2C (Rattus norvegicus)
- Sequence (P08909 whole entry): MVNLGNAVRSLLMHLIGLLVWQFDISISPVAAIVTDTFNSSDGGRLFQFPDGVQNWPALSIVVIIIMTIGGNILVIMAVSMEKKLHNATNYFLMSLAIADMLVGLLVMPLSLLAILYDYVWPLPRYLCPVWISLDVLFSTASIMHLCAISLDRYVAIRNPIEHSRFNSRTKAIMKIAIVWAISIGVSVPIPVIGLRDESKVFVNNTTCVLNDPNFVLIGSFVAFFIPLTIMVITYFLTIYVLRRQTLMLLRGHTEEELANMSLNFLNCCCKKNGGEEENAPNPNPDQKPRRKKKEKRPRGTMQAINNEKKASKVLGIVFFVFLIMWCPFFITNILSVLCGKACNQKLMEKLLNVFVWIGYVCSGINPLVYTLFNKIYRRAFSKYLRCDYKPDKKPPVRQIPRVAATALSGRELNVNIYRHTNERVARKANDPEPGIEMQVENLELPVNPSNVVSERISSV
measured_endpoint: Ki

Consider the compound NC(=O)c1cccc(-c2cccc(OC(=O)NC3CCCCC3)c2)c1 and give its measured Ki.
> 10 µM

* * *

- measurement_target: D(2) dopamine receptor (Homo sapiens)
- Sequence (P14416 whole entry): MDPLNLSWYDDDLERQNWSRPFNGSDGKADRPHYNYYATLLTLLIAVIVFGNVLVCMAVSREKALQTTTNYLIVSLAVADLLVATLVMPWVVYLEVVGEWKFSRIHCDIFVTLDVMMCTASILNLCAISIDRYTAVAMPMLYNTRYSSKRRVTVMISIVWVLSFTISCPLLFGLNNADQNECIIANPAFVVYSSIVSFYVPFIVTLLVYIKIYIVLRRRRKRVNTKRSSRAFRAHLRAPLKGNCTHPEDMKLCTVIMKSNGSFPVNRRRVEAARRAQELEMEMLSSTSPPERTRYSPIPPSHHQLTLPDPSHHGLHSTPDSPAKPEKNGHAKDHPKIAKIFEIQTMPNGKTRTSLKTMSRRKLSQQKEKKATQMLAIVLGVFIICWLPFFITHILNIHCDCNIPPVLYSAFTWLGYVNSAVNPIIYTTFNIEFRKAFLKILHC
measured_endpoint: Ki

I'd like to know its Ki. The compound in question is NC(=O)c1cccc(-c2cccc(OC(=O)NC3CCCCC3)c2)c1 [URB 597]
> 10 µM

* * *

- measurement_target: Histamine H2 receptor (Homo sapiens)
- Sequence (P25021 whole entry): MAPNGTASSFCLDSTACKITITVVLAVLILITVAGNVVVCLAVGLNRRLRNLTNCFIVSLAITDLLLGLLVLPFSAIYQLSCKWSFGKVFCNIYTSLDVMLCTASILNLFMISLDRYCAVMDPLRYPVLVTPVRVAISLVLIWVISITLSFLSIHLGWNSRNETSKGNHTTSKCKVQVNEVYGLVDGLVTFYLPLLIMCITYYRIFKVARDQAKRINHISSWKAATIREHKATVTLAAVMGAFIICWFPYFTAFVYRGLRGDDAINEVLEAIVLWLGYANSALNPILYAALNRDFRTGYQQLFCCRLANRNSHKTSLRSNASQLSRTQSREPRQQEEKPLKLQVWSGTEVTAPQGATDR
measured_endpoint: Ki

Please tell me: Ki of NC(=O)c1cccc(-c2cccc(OC(=O)NC3CCCCC3)c2)c1 [URB 597] , system Histamine H2 receptor (Homo sapiens)?
> 10 µM

* * *

- measurement_target: UniProt:P08908
- Sequence (P08908 whole entry): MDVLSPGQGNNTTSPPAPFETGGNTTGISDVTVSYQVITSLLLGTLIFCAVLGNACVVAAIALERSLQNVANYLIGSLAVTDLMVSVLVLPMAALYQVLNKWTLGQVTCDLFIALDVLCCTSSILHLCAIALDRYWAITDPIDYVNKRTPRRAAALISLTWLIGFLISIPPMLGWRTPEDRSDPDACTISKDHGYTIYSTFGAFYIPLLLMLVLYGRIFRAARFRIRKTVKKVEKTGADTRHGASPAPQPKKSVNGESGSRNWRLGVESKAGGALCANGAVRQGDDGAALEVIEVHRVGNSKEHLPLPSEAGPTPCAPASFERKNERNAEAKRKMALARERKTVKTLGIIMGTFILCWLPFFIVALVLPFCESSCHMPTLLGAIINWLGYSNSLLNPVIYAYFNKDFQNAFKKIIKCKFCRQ
measured_endpoint: Ki

Query (compound): NC(=O)c1cccc(-c2cccc(OC(=O)NC3CCCCC3)c2)c1 ; field requested: Ki
> 10 µM

* * *

- measurement_target: UniProtKB Q12809
- Sequence (Q12809 whole entry): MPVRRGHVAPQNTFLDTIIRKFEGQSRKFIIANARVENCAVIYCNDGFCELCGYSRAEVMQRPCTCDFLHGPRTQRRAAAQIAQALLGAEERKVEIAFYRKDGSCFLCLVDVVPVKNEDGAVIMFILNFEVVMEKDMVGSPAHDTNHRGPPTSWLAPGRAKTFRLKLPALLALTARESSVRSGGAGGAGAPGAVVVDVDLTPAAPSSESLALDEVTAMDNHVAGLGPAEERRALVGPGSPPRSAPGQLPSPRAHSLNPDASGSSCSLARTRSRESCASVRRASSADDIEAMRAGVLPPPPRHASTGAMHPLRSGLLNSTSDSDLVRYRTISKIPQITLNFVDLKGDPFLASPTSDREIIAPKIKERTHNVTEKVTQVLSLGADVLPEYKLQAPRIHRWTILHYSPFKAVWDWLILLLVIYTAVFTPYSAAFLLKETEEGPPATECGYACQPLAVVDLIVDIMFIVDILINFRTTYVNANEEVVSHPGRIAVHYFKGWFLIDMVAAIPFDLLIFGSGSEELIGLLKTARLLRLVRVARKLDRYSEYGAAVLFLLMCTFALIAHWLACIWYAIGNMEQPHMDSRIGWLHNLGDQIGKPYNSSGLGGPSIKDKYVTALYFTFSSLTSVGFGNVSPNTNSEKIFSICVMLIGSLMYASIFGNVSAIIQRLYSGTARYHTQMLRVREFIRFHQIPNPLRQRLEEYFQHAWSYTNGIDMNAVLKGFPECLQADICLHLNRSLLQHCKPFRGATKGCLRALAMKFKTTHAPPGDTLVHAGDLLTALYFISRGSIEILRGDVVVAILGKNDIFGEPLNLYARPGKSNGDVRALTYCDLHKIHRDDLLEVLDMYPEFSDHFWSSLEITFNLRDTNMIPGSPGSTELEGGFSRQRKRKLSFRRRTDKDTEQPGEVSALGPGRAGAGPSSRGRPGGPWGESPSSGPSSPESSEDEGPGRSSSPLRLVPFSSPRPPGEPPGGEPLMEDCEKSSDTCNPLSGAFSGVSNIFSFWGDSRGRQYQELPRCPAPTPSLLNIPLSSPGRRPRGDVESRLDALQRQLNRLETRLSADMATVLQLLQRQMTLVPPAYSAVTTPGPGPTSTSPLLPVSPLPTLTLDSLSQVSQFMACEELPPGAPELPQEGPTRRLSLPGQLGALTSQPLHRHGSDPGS
pKi: −log10 of the molar value.
measured_endpoint: pKi

Which measured pKi value corresponds to NC(=O)c1cccc(-c2cccc(OC(=O)NC3CCCCC3)c2)c1 [URB 597] ?
< 5.00

* * *

- measurement_target: D(1B) dopamine receptor (Homo sapiens, UniProt P21918)
- Sequence (P21918 whole entry): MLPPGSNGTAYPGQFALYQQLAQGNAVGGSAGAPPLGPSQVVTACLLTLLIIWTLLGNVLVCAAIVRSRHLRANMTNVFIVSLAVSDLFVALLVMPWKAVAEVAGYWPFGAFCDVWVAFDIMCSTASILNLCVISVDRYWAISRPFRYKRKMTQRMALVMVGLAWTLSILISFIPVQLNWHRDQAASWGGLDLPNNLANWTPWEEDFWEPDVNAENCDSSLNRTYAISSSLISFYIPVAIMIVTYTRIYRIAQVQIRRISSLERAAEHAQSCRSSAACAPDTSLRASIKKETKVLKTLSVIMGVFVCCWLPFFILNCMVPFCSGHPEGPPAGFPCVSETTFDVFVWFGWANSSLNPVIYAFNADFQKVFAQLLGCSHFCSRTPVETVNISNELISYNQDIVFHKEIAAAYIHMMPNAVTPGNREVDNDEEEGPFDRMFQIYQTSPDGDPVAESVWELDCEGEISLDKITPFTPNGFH
measured_endpoint: Ki

What does the data say about its Ki? Entry: NC(=O)c1cccc(-c2cccc(OC(=O)NC3CCCCC3)c2)c1
> 10 µM
